This listing pairs molecules with measured Percent Effect.
Tested system: Ubiquitin-activating enzyme e1, putative (Leishmania donovani (strain BPK282A1)) (UniProt E9BSI1)
Sequence (whole entry): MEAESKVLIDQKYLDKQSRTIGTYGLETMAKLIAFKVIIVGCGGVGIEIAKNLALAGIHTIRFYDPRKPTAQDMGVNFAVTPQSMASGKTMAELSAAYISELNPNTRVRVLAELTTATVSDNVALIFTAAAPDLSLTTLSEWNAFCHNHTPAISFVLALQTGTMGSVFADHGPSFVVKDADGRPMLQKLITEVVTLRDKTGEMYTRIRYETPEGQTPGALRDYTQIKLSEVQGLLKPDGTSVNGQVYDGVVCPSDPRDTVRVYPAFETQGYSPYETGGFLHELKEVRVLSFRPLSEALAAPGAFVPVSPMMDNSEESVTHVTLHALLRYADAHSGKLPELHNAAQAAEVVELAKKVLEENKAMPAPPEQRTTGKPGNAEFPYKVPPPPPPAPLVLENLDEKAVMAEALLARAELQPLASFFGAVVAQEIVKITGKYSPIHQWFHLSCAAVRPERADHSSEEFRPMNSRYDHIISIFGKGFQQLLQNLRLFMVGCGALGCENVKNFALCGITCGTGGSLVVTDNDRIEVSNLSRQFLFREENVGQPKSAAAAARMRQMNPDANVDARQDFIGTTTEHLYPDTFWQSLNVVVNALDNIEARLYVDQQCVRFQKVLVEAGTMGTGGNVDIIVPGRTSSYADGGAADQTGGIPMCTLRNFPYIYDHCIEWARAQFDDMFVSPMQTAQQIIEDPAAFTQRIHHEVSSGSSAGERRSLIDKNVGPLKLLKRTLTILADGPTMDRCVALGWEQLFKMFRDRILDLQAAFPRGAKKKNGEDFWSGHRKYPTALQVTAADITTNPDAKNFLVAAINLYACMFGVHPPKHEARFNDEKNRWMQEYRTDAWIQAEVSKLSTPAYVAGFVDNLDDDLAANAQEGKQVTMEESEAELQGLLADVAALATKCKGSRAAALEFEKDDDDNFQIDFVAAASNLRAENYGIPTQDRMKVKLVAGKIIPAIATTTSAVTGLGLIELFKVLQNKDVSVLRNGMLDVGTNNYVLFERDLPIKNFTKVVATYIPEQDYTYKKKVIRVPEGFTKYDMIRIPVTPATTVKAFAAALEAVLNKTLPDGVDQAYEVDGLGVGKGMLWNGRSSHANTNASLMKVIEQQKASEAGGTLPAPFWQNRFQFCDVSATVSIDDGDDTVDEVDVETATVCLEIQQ
Experiment: Leishmania donovani Ubiquitin Activating Enzyme (LdE1)
Type: functional
Parameters: scale not given: direction of the effect not stated beside the values
Condition summary: 30 µM
Results with a measured potency or affinity are listed apart.

Molecule: O=C(Nc1ccc(F)cc1)N1C[C@H]2C[C@H](C(=O)N3CCOCC3)[C@@H](C1)O2
Percent Effect / %: 7.79
--
Molecule: CC(=O)N(Cc1noc(C)n1)C1CCN(Cc2ccon2)C1 (centres undefined)
Percent Effect / %: 21.5
--
Molecule: O=C(Nc1ccccn1)N(CCO)Cc1ccsc1
Percent Effect / %: 10.5
--
Molecule: CCCC(=O)N1CCC(O)(Cn2c(CC)nc3ccccc3c2=O)CC1
Percent Effect / %: 17.6
--
Molecule: COc1cccc(OCCNCc2c(C)nn(C)c2N(C)C)c1
Percent Effect / %: 5.26
--
Molecule: Cn1cc(C(=O)NC2CCN(C(=O)NCCSC(F)(F)F)CC2)cn1
Percent Effect / %: 13.9
--
Molecule: COc1cc(C)sc1C(=O)N1CC(c2cccnc2)C1
Percent Effect / %: 2.7
--
Molecule: Cc1csc(N2CCN(C(=O)Cc3ccc(C)s3)CC2)n1
Percent Effect / %: 10.8
--
Molecule: CN(Cc1cnn(C)c1)C(=O)NCc1csc(Br)c1
Percent Effect / %: 16.2
--
Molecule: CCN1C(=O)C(C)(C)c2cc(NC(=O)c3ccco3)ccc21
Percent Effect / %: 10.4
--
Molecule: O=C(NC[C@]12COC[C@H]1CN(C1CCOCC1)C2)c1ccco1
Percent Effect / %: 10.7
--
Molecule: COC(=O)C(C)(C)NC(=O)C1CC(=O)N(C)C1 (centres undefined)
Percent Effect / %: -2.74
--
Molecule: CC(C#N)CSc1ccccc1NCC(=O)Nc1ccc(F)cc1 (centres undefined)
Percent Effect / %: -5.48
--
Molecule: CCOCCOc1ccccc1C(=O)N1CCCC(c2ncc[nH]2)C1 (centres undefined)
Percent Effect / %: 8.22
--
Molecule: COCc1ccccc1CNCc1c(C)nn(C)c1N(C)C
Percent Effect / %: 10.8
--
Molecule: CCN1C(=O)CCC12CCCN(Cc1nccs1)CC2 (centres undefined)
Percent Effect / %: 8
--
Molecule: CC(C)c1nc(CC(=O)Nc2nc(CN3CCCCCC3)cs2)cs1
Percent Effect / %: -15.6
--
Molecule: Cn1c(C(=O)N2CCC(C(=O)N3CCCC3)CC2)c(Cl)c2ccccc21
Percent Effect / %: 5.33
--
Molecule: Cc1nc2ccnn2c(C)c1CCC(=O)N1CCC(C(N)=O)CC1
Percent Effect / %: 2.63
--
Molecule: COCc1nc(C(=O)N2CCCC2c2noc(C(C)C)n2)cs1 (centres undefined)
Percent Effect / %: 1.27
--
Molecule: Cc1ncsc1C(=O)NC1CCN(Cc2cccnc2)CC1
Percent Effect / %: 10.4
--
Molecule: CNC(=O)c1ccc(C2CN(C(=O)c3cncs3)CCO2)nc1 (centres undefined)
Percent Effect / %: 20.3
--
Molecule: O=C(CCOCc1ccccc1)N1CCCC1c1noc(C2CC2)n1 (centres undefined)
Percent Effect / %: 21.6
--
Molecule: CC(C)CN1C(=O)c2ccc(C(=O)NCCc3c[nH]cn3)cc2C1=O
Percent Effect / %: -1.33

====

Tested system: Ubiquitin-activating enzyme e1, putative (Leishmania donovani (strain BPK282A1))
Experiment: Leishmania donovani Ubiquitin Activating Enzyme (LdE1)
Assay type: functional
Design: scale not given: direction of the effect not stated beside the values
Condition summary: 30 µM
Entries with a potency or affinity are not part of this list.
This listing pairs compounds with measured Percent Effect.

Compound: O=C(NCc1cnc2n1CCN(Cc1ccsc1)CC2)C1CCC1
Percent Effect: 8.11%
//
Compound: COc1nc2c(cc1C(=O)N1C[C@H](N)C[C@H]1C(=O)NC(C)C)CCC2
Percent Effect: 18.1%
//
Compound: CCc1nc2n(n1)CC(NCC(=O)Nc1cc(C)on1)CC2 (stereo unspecified)
Percent Effect: 5.06%
//
Compound: O=C(CC1CC1)N1CCC2(CC1)CN(c1ncccn1)CCO2
Percent Effect: 2.67%
//
Compound: Cc1nn(C)cc1C(=O)Nc1cccc(CN2CCC(CO)CC2)c1
Percent Effect: 18.4%
//
Compound: COCC(=O)N1CCN(C(=O)c2scnc2C)CC1
Percent Effect: 7.89%

The measured values listed here are drawn from ChEMBL document CHEMBL3988442.
